Origin of measurements: the supplement of paper PMC11208160

Assay: recombinant UMI read abundance after kanamycin selection (control-corrected) (log10(CPM+1)); higher = more efficient recombination; extreme values may be limits of the assay; sequences stand for … in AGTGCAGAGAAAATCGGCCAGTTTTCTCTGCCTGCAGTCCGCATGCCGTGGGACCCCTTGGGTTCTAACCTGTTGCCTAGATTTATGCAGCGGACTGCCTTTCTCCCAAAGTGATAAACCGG…AGGTTGGTTTCACT; site = the 11-nt donor
rule met means recorded recombinant UMI read abundance (log10) is 0.02 or above; rule not met means it is below 0.02.

Observe how each entry below is paired with its result.
> print(dat)
                              residuestring         class
1  CGTATGGCATGGACCGGTTTTCCCGGTAATCCGTATTTGTG (site CGTATGGCTCA)      rule met
2  AGGAATACATGGACCGGTTTTCCCGGTAATCCGTATTTGCA (site AGGAACACTTG)      rule met
3  GTTTGAACATGGACCGGTTTTCCCGGTAATCCGTATTTGGC (site GTTGGAACTGC)  rule not met

Query :: Has GTAGTGGCATGGACCGGTTTTCCCGGTAATCCGTATTTGGT (site GCAGTGGCTAC) a recorded recombinant UMI read abundance (log10) greater than or equal to 0.02?
Result :: rule met

Query :: Kindly determine if recombinant UMI read abundance (log10) recorded for TAGTGATCATGGACCGGTTTTCCCGGTAATCCGTATTTGCA (site TAGTGATCTTG) is above or exactly 0.02.
Result :: rule met

Query :: Quick check, recombinant UMI read abundance (log10) >= 0.02? CATATCCCATGGACCGGTTTTCCCGGTAATCCGTATTTGAC (site CATATCCCTGT)
Result :: rule met

Query :: For this sequence, is measured recombinant UMI read abundance (log10) 0.02 or higher? GTTAGAACATGGACCGGTTTTCCCGGTAATCCGTATTTGGA (site GTTAGAACTTC)
Result :: rule met

Query :: Does TCCAATTCATGGACCGGTTTTCCCGGTAATCCGTATTTGCC (site CCCAATTCTGG) have a reported recombinant UMI read abundance (log10) of at least 0.02?
Result :: rule not met

Query :: Is the recorded value of recombinant UMI read abundance (log10) equal to or greater than 0.02 for this sequence? AGGTGGACATGGACCGGTTTTCCCGGTAATCCGTATTTGCA (site AGGTGGACTTG)
Result :: rule met

###

Assay: recombinant barcode read abundance after kanamycin selection (control-corrected) (log10(CPM+1)); higher = more efficient recombination; sequences stand for … in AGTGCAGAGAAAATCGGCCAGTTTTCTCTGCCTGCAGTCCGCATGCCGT…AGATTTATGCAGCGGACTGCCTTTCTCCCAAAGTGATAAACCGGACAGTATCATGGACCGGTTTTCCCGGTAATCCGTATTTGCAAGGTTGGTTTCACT; site = the 11-nt target
Please use MET whenever recombinant barcode read abundance (log10) is not below 0.2, and NOT MET whenever it is.

Reference set, count: 5
> print(dat)
                              residuestring    class
1  AAGTTGACTTGGGTTCTAACCTGTTGCCT (site AACTTGACTAG)      MET
2  GGTCCTGCTTGGGTTCTAACCTGTTGCCT (site GGTCCTGCTAG)      MET
3  TCCGGTTCTTGGGTTCTAACCTGTTGCCT (site TCCGGTTCTAG)      MET
4  TGAGGATCTTGGGTTCTAACCTGTTGCCT (site TGAGGCACTAG)      MET
5  AGGGCAGCTTGGGTTCTAACCTGTTGCCT (site AGGGAAGCTAG)  NOT MET

Query :: Tell me whether recombinant barcode read abundance (log10) is at least 0.2 here: AGGACTACTTGGGTTCTAACCTGTTGCCT (site AGAACTACTAG)
Result :: MET

Query :: # bool: recombinant barcode read abundance (log10) of AGGAACCCTTGGGTTCTAACCTGTTGCTT (site AGGAACCCTGA) >= 0.2
Result :: NOT MET

###

Here, each record is paired with measured recombinant barcode read abundance (log10) data.
Assay: recombinant barcode read abundance after kanamycin selection (control-corrected) (log10(CPM+1)); higher = more efficient recombination; sequences stand for … in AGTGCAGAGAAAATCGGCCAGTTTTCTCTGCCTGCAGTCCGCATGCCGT…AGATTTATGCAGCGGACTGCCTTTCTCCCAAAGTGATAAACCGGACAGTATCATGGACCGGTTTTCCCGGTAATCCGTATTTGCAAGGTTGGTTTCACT; site = the 11-nt target
Please reply with the value in numeric form only.

Examples with answers:
> print(dat)
                              residuestring  reported
1  AACCTAGCTTGGGTTCTAACCTGTTGCTA (site AACCTAGCTTA)     0.395
2  GAGTGGCCTTGGGTTCTAACCTGTTGCGT (site GAGTGGCCTAG)     0.227
3  GGGGTTCCTTGGGTTCTAACCTGTTGCTT (site GGGGTTCCTAG)      1.36
4  CGGACGGCTTGGGTTCTAACCTGTTGCCT (site CGGACGGCTAG)     0.215
5  ATGCGAGCTTGGGTTCTAACCTGTTGCAG (site ATGCGAGCTCA)     0.791

What the record says about AGATCCGCTTGGGTTCTAACCTGTTGCCT (site CGGTCCGCTAG) : recombinant barcode read abundance (log10) is 0.346

Per the record, TTATGATCTTGGGTTCTAACCTGTTGCCT (site TTATGATCTAG) has recombinant barcode read abundance (log10) of 0.193

Recorded result, CTCTGTCCTTGGGTTCTAACCTGTTGCTA (site CTCTGTCCTTG) , recombinant barcode read abundance (log10): 0.0487

Per the records, this sequence ( CTTACAGCTTGGGTTCTAACCTGTTGCCT (site CTTACAGCTAG) ) has recombinant barcode read abundance (log10) equal to 0.644

Given item TAGTACCCTTGGGTTCTAACCTGTTGCAC (site TAGTACCCTGT) , the value recorded as its recombinant barcode read abundance (log10) is 1.28

###

Experiment: recombinant barcode read abundance after kanamycin selection (control-corrected) (log10(CPM+1)); higher = more efficient recombination; sequences stand for … in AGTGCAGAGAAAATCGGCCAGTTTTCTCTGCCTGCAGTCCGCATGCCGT…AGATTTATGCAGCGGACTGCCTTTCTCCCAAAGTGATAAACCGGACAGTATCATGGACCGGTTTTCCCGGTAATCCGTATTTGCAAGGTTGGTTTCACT; site = the 11-nt target
Binning of recombinant barcode read abundance (log10) into classes: lower bin (below 0.5), middle bin (0.5 to below 0.8), upper bin (0.8 or more)

# count of solved cases: 5
> print(dat)
                              residuestring       class
1  CGTGGTCCTTGGGTTCTAACCTGTTGCCT (site CGTGGTCCTAT)  middle bin
2  GAGTGAGCTTGGGTTCTAACCTGTTGCAT (site GAGGGAGCTAT)   upper bin
3  AATAGCTCTTGGGTTCTAACCTGTTGCCT (site CATAGCTCTAG)   lower bin
4  CCGAGAGCTTGGGTTCTAACCTGTTGCCT (site CCGAGAGCTAG)   lower bin
5  CAAATCCCTTGGGTTCTAACCTGTTGCGT (site ATCGAGTCTTG)   lower bin

Query :: Tag the class for AGAAGCCCTTGGGTTCTAACCTGTTGCCT (site AGAAGCCCTAG)
Result :: upper bin

Query :: Pick a category. Item: ACTATGACTTGGGTTCTAACCTGTTGCTT (site ACTATGACTAA)
Result :: middle bin

Query :: Hey, which category is CGTTGTCCTTGGGTTCTAACCTGTTGCAA (site CGTTGTCCTTT) in, do you know?
Result :: lower bin

Query :: Textbook exercise: identify the category of the sequence given here, ACGATCGCTTGGGTTCTAACCTGTTGCCT (site ACGATCGCTAG) , according to its measured value.
Result :: upper bin

###

Experiment: recombinant barcode read abundance after kanamycin selection (control-corrected) (log10(CPM+1)); higher = more efficient recombination; sequences stand for … in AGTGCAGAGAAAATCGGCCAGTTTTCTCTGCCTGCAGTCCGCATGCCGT…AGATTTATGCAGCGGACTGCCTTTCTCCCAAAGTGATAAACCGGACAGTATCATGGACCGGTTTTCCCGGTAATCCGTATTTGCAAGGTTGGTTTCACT; site = the 11-nt target
readoutKind: recombinant barcode read abundance (log10)

The examples below pair each entry with its known result.
> print(dat)
                              residuestring  reported
1  TATGCGGCTTGGGTTCTAACCTGTTGCCT (site TATGAGGCTAG)         0
2  CTAAATACTTGGGTTCTAACCTGTTGCTT (site CTAAATACTAA)     0.383
3  GGCTCCTCTTGGGTTCTAACCTGTTGCCT (site GGCTCCTCTAG)     0.733
4  CGGTAGTCTTGGGTTCTAACCTGTTGCTG (site CGGTAGTCTCA)      1.08

Consider the additional sequence presented here.
The sequence identified as GGCCGGTCTTGGGTTCTAACCTGTTGCCT (site GGCCGGCCTAG) registered its recombinant barcode read abundance (log10) at 0.248
